biological target: C3a receptor (C3aR) (Homo sapiens); construct: peripheral blood mononuclear cells were isolated from buffy coat (obtained from Australian Red Cross Blood Service, Kelvin Grove); endogenous in cells; host or cells: primary human monocyte-derived macrophages (HMDM) differentiated from CD14+ monocytes of donor buffy coat; test: Competitive binding with [^125I]-C3a in HMDM; conditions: Table 8; HMDM; read-out: Receptor Binding Affinity ^125I IC50
Sequence (Q16581 whole entry): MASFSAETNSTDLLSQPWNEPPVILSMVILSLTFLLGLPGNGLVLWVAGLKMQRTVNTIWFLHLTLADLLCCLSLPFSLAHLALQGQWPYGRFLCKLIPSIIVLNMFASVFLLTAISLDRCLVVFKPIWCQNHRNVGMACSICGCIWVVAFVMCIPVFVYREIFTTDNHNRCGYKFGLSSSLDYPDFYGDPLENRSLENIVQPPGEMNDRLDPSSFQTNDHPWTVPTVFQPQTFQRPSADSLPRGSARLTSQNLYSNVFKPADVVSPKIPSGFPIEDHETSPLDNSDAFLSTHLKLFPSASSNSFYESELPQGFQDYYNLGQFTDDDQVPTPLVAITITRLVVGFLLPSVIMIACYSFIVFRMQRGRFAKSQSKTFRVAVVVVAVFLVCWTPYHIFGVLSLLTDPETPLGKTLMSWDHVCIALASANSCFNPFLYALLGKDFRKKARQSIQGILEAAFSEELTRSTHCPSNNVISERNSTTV
Property: IC50 (µM)

                                   compound  property  quantity_unit  obs_value
0  N=C(N)NCCC[C@H](NC(=O)c1sc(C(c2ccccc2)c2ccccc2)nc1-c1ccccc1)C(=O)O      IC50             µM       3.37
1  N=C(N)NCCC[C@H](NC(=O)c1nnc(C(c2ccccc2)c2ccccc2)o1)C(=O)O      IC50             µM       2.58
2  Cc1oc(C(c2ccccc2)c2ccccc2)nc1C(=O)N[C@@H](CCCNC(=N)N)C(=O)O      IC50             µM       0.74
3  N=C(N)NCCC[C@H](NC(=O)c1coc(C(c2ccccc2)c2ccccc2)n1)C(=O)O      IC50             µM      0.001
4  Cc1nc(C(c2ccccc2)c2ccccc2)sc1C(=O)N[C@@H](CCCNC(=N)N)C(=O)O      IC50             µM      0.038
5  N=C(N)NCCC[C@H](NC(=O)c1nc(C(c2ccccc2)c2ccccc2)no1)C(=O)O      IC50             µM      0.011

a = Cc1nc(C(c2ccccc2)c2ccccc2)oc1C(=O)N[C@@H](CCCNC(=N)N)C(=O)O
b = N=C(N)NCCC[C@H](NC(=O)c1nc(C(c2ccccc2)c2ccccc2)[nH]c1-c1ccccc1)C(=O)O
c = N=C(N)NCCC[C@H](NC(=O)c1ccc(C(c2ccccc2)c2ccccc2)s1)C(=O)O
d = Cc1nc(C(c2ccccc2)c2ccccc2)[nH]c1C(=O)N[C@@H](CCCNC(=N)N)C(=O)O
Ascending by IC50, please. To answer, write out the labels according to the requested order.
d, a, b, c

----------
target: C3a receptor (C3aR) (Homo sapiens); construct: peripheral blood mononuclear cells were isolated from buffy coat (obtained from Australian Red Cross Blood Service, Kelvin Grove); endogenous in cells; host or cells: primary human monocyte-derived macrophages (HMDM) differentiated from CD14+ monocytes of donor buffy coat; experiment: Competitive binding with [^125I]-C3a in HMDM; conditions: Table 14; binding affinity for C3aR on HMDM
Property: -Log IC50

In [3]: df
Out[3]:
                              record_smiles                     target_of_assay  obs_value
0  Cc1nc(C(c2ccccc2)c2ccccc2)[nH]c1C(=O)N[C@@H](CCCNC(=N)N)C(=O)O  C3a receptor (C3aR) (Homo sapiens)        8.0
1  Cc1nc(C(c2ccccc2)c2ccccc2)oc1C(=O)N[C@@H](CCCNC(=N)N)C(=O)O  C3a receptor (C3aR) (Homo sapiens)        7.0
2  Cc1oc(C(c2ccccc2)c2ccccc2)nc1C(=O)N[C@@H](CCCNC(=N)N)C(=O)O  C3a receptor (C3aR) (Homo sapiens)        8.0
3  N=C(N)NCCC[C@H](NC(=O)c1nc(C(c2ccccc2)c2ccccc2)no1)C(=O)O  C3a receptor (C3aR) (Homo sapiens)        7.9
